# MEASUREMENT DESCRIPTION: total protein half-life in vivo (active degradation + dilution); higher = more stable protein
# ASSAY CONTEXT: E. coli NCM3722 delta-clpP delta-lon delta-hslV; growth: N-lim chemostat; doubling time 6 h

MONOMER SEQUENCE	UNITS OF MEASURE	total protein half-life in vivo
MKLDEIARLAGVSRTTASYVINGKAKQYRVSDKTVEKVMAVVREHNYHPNAVAAGLRAGRTRSIGLVIPDLENTSYTRIANYLERQARQRGYQLLIACSEDQPDNEMRCIEHLLQRQVDAIIVSTSLPPEHPFYQRWANDPFPIVALDRALDREHFTSVVGADQDDAEMLAEELRKFPAETVLYLGALPELSVSFLREQGFRTAWKDDPREVHFLYANSYEREAAAQLFEKWLETHPMPQALFTTSFALLQGVMDVTLRRDGKLPSDLAIATFGDNELLDFLQCPVLAVAQRHRDVAERVLEIVLASLDEPRKPKPGLTRIKRNLYRRGVLSRS [P0ACP1]	h	6.05
